This collection of values is drawn from PubChem BioAssay.

- assay: binders of probe aFSTL3 on microarray, primary screen, stem cell growth factor project, biochemical, small-molecule microarray, fluorescence 635/667 (AID 1064);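 note: measures binding of the biotinylated anti-FSTL3 antibody to printed compounds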
- settings: higher = more signal
Recorded composite z-score split into classes c1 (below -0.2), c2 (-0.2 to below 0.1), c3 (0.1 or more)

INSERT INTO assay_data (molecule, group) VALUES
  ('CC(C)(C)OC(=O)CC[C@]1(C(=O)NCC(O)CO)COC(c2ccc(OCCCO)cc2)=N1 (stereo partly specified)', 'c3'),
  ('CC(C)[C@@H](CO)NC(=O)[C@H]1[C@@H](c2ccccc2)N(c2ccccc2)O[C@@H]1C', 'c1'),
  ('O=C1O[C@H](c2ccccc2)[C@H](c2ccccc2)N2[C@H]1[C@@H](C(=O)NC[C@H](O)c1ccccc1)[C@]1(C(=O)Nc3ccccc31)[C@H]2c1ccc(OCCO)cc1', 'c2'),
  ('O=C1C2C=CC(C(O)c3c(F)cccc3Cl)N(Nc3ccccc3)C2C(=O)N1c1ccccc1 (stereo unspecified)', 'c2'),
  ('COc1ccc(C(=O)Nc2ccc(CN3C(=O)[C@@]4(O[C@@H](CC(=O)N5CCC[C@H]5CO)[C@H]([Si](C)(C)c5ccc(OC)cc5)[C@H]4C)c4ccccc43)cc2)cc1', 'c2'),
  ('C=CCNC(=O)[C@@H]1[C@H]2C(=O)O[C@H](c3ccccc3)[C@H](c3ccccc3)N2[C@H](c2ccc(OCCO)cc2)[C@@]12C(=O)Nc1ccc(C#Cc3ccc(OC)cc3)cc12', 'c2'),
  ('COc1ccc(CCN2C(=O)[C@@]3(Cc4ccccc42)c2ccccc2C(=O)N(Cc2ccccc2C(F)(F)F)[C@H]3c2ccc(CO)cc2)cc1', 'c1'),
  ('COCCn1c(C(=O)N2CCCC2)cc2c1C[C@H]1CN(C(=O)c3ccccc3)[C@@](Cc3ccc(F)cc3)(C(=O)OC)[C@@H]21', 'c3'),
  ('O=C1O[C@H](c2ccccc2)[C@H](c2ccccc2)N2[C@H]1[C@@H](C(=O)Nc1nc3ccccc3s1)[C@]1(C(=O)Nc3ccc(C#CC4(O)CCCCCC4)cc31)[C@H]2c1ccc(OCCO)cc1', 'c1'),
  ('COc1ccc([C@H]2C[C@H]3C(Br)=C[C@@H]2C(=O)[C@]32CO2)cc1', 'c3'),
  ('COCCOC(=O)N1C(=O)[C@@]2(c3cc(C#CCCO)ccc31)[C@H](C(=O)N1CCN(c3ncccn3)CC1)[C@H]1C(=O)O[C@H](c3ccccc3)[C@H](c3ccccc3)N1[C@@H]2c1ccccc1OCCO', 'c1'),
  ('Cc1ccc(S[C@]2(C(=O)NCC(C)C)CC(=O)N(Cc3cc(C(F)(F)F)cc(C(F)(F)F)c3)[C@@H]2c2ccc(CO)cc2I)cc1', 'c3'),
  ('CC1(C)[C@@H]2CC(C(O)C3C=CC4C(=O)N(c5ccccc5)C(=O)C4N3Nc3ccccc3)=C[C@H]1C2 (stereo partly specified)', 'c3'),
  ('COCC(=C=CC[C@H](O)c1ccccc1OCCO)C[C@H](O)c1cc(Cl)cc(Cl)c1O', 'c1'),
  ('COCCOC(=O)N1C(=O)[C@@]2(c3cc(C#Cc4ccc(OC)cc4)ccc31)[C@H](C(N)=O)[C@H]1C(=O)O[C@H](c3ccccc3)[C@H](c3ccccc3)N1[C@@H]2c1ccccc1OCCO', 'c3'),
  ('O=C1O[C@H](c2ccccc2)[C@H](c2ccccc2)N2[C@H]1[C@@H](C(=O)N1CCN(c3ncccn3)CC1)[C@]1(C(=O)Nc3ccc(C#CC4=CCCCC4)cc31)[C@H]2c1ccc(O)cc1', 'c2'),
  ('COc1ccc(C(O)C2C=CC3C(=O)N(C)C(=O)C3N2N2CCCCC2)c2ccccc12 (stereo unspecified)', 'c1'),
  ('COc1ccc(COC2OC[C@]3(C)[C@H]4C5=C(CN3C(=O)OC(C)(C)C)[C@H](C)C(CO)C(CO)C5CC[C@@H]24)cc1 (stereo partly specified)', 'c3'),
  ('COc1ccc(C(=O)Nc2cccc(CN3C(=O)[C@]4(O[C@H](CCO)[C@@H]([Si](C)(C)c5ccc(OC)cc5)[C@@H]4C)c4ccccc43)c2)cc1', 'c1'),
  ('COc1ccc(CCN2C(=O)[C@@]3(c4ccc([N+](=O)[O-])cc4)CC(=O)N(C4CCCCC4)[C@@H]3c3ccc(CO)cc32)cc1', 'c2'),
  ('COc1cc(CO)cc(I)c1O[C@H]1C=C(C(=O)NCCO)C[C@@H](N(CCN2CCOCC2)C(=O)C2CCOC2)[C@@H]1O (stereo partly specified)', 'c1'),
  ('N#Cc1ccc(NN2C(C(O)c3c(F)cccc3Cl)C=CC3C(=O)N(c4ccccc4)C(=O)C32)cc1 (stereo unspecified)', 'c3'),
  ('O=C1c2ccccc2[C@](Cc2ccccc2I)(C(=O)NC2CC2)[C@H](c2ccc(CO)cc2)N1Cc1ccccc1', 'c3'),
  ('COc1ccc(C(O)C2C=CC3C(=O)N(c4ccccc4)C(=O)C3N2Nc2ccccc2F)cc1OCc1ccccc1 (stereo unspecified)', 'c3'),
  ('C=CCC(OC(C)=O)[C@@H]1[C@@H](N(Cc2ccc(-c3ccccc3)cc2)C(=O)Cc2ccc(F)cc2)c2cc(OCCCO)ccc2N1C(=O)c1ccc(-c2ccccc2)cc1 (stereo partly specified)', 'c3');
